Test: qHTS for Inhibitors of TGF-b: Cytotox Counterscreen
Settings: HepG2 CAGA-GFP viability, ATP luminescence, 18 h; series mostly up to 46.1 µM
In all, about 410,000 compounds went through this assay and about 3,100 (0.76%) were called active. The call rests on the fitted dose curve; in most records, active means well fitted cell-killing curve with a large enough effect; inactive means no such curve, though single readings can be large or run the other way. The list comes from a sample in which actives are over-represented; it also holds close analogues and randomly drawn compounds.
Form entry, call: pick from TRUE for active, FALSE for inactive

compound	answer label
COc1ccc(CCNC(=O)CCn2c(=O)oc3ccccc32)cc1OC	FALSE
CC(C)(C)c1ccc(CN2C(=O)CN=C(c3ccccc3)c3ccccc32)cc1	TRUE
COc1c(O)ccc2c1-c1c3c(cc4c1C(C2)N(C)CC4)OCO3 (stereo unspecified)	FALSE
CCOP(=O)(OCC)C(Cc1ccccc1)N=C(c1ccccc1)c1ccccc1 (stereo unspecified)	FALSE
ClCCN(CCCl)c1ccc(C=Nc2ccc(/C=C/c3ccnc4ccccc34)cc2)cc1	FALSE
CCN(CC)C(=O)Oc1ccc(OC(=O)N(CC)CC)cc1	FALSE

Outcome logged for CC(C)COC(=O)n1c(=O)oc2ccc(S(=O)(=O)N3CCCCC3)cc21 in this assay:
FALSE

Outcome logged for Cn1c(=O)oc2cc(S(=O)(=O)N3CCC(C(=O)Nc4ccc(OC(F)(F)F)cc4)CC3)ccc21 in this assay:
FALSE

Outcome logged for CCOC(=O)C(NS(=O)(=O)c1ccc(C)cc1)(C(F)(F)F)P(=O)(OCC(C)C)OCC(C)C (stereo unspecified) in this assay:
FALSE

Outcome logged for COc1ccc2cc1Oc1ccc(cc1)C[C@H]1c3cc(c(OC)cc3CCN1C)Oc1c(O)c(OC)cc3c1[C@H](C2)N(C)CC3 in this assay:
TRUE

Outcome logged for COc1ccc2c(c1O)-c1cccc3c1[C@@H](C2)N(C)CC3 in this assay:
FALSE
